inhibition by entry:
testedTarget: ATP-binding cassette sub-family B member 6 (Homo sapiens)
assayInfo: ABCB6 transporter inhibitors, pilot screen, K562-ABCB6 cells, flow cytometry, validation set (AID 588550);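 also: 0% = DMSO wells and 100% = benzethonium chloride 70 µM positive control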
particulars: K562-ABCB6 porphyrin accumulation, 1 h, at 10 µM, active compounds read high
reportedMetric: inhibition (%)

molecule: CCOC(=O)C1=C(N)Oc2c(oc(CO)cc2=O)C1c1ccc(F)c(F)c1 (configuration not stated)
valueReported: 2
--
molecule: COc1cc2nc(N3CCN(C(=O)C4COc5ccccc5O4)CC3)nc(N)c2cc1OC (configuration not stated)
valueReported: -6
--
molecule: CCOC(=O)c1cnc2ccc(C(=O)OC)cc2c1Nc1ccc2c(c1)OCCO2
valueReported: -2
--
molecule: CN(C)CCOc1ccccc1Cc1ccccc1
valueReported: 14
--
molecule: COc1c(C)cc(C(=O)C2CCCN(Cc3ccc(Oc4ncccn4)cc3)C2)cc1C (configuration not stated)
valueReported: 5
--
molecule: COC(=O)c1ccc(=O)n(Cc2ccco2)c1
valueReported: 12
--
molecule: C[C@H]1C[C@H]2[C@@H]3CCC4=CC(=O)C=C[C@]4(C)[C@@]3(Cl)[C@@H](O)C[C@]2(C)[C@@]1(O)C(=O)CO
valueReported: 6
--
molecule: COc1ccc(-c2nc(C)c(C(C)=O)n2O)cc1OC
valueReported: 11
--
molecule: Cc1oc2c(CN3CCCC3)c(O)ccc2c(=O)c1-c1ccc(Cl)cc1
valueReported: 10
--
molecule: CCN1CCN(C(=O)N[C@@H](C(=O)N[C@@H]2C(=O)N3[C@@H]2SC(C)(C)[C@@H]3C(=O)O)c2ccccc2)C(=O)C1=O
valueReported: 7
--
molecule: CN(C)C(=O)C(CCN1CCC(O)(c2ccc(Cl)cc2)CC1)(c1ccccc1)c1ccccc1
valueReported: 2
--
molecule: CC(=O)OCC(=O)C1=CCC2C3CCC4=CC(=O)C=CC4(C)C3(F)C(OC(C)=O)CC12C (configuration not stated)
valueReported: 9
--
molecule: COc1ccc(CCCC(=O)O)c(C)c1
valueReported: 17
--
molecule: Cn1cc(CN2CCCC(CO)(Cc3cccc(Cl)c3)C2)cn1 (configuration not stated)
valueReported: 2
--
molecule: O=C(Oc1cccccc1=O)c1ccccc1
valueReported: 2
--
molecule: COc1ccc2oc(=O)c(C(=O)N3CCN(c4ccccc4)CC3)cc2c1
valueReported: 10
--
molecule: CC(=O)OCC1OC(n2ccc(=O)[nH]c2=O)C(O)C1O (configuration not stated)
valueReported: 9
--
molecule: CC(=Nc1ccccc1)C1=C(O)CCCC1=O
valueReported: 0
--
molecule: NCCOc1ccccc1OCCN
valueReported: 11
--
molecule: CCc1cccc2c1NC1(CCCC1)CC2C (configuration not stated)
valueReported: -41
--
molecule: COc1ccc(S(=O)(=O)NC(Cc2cnc[nH]2)C(=O)O)cc1 (configuration not stated)
valueReported: -19
--
molecule: O=C1C=CC(=O)C(C2=C3C(=O)N(CCc4ccccc4)CC(=O)N3CCC2)=C1
valueReported: 8
